Tested on: SNB-19 CNS
Assay: NCI tumour cell line growth inhibition, 48 h
value_kind: TGI

Hi! What's the reported TGI for `O=C1CCCC/C1=C\c1ccc([N+](=O)[O-])cc1` on SNB-19 CNS?
32.5 µM

Hi! What's the reported TGI for `COc1cc(OC)c2sc(-c3ccc(-n4cncc4-c4ccc(OC)c(OC)c4)cc3)nc2c1` on SNB-19 CNS?
> 100 µM

Hi! What's the reported TGI for `Cc1ccc(-c2c(-c3ccccc3)[nH]c(C)c2C(=O)ONC(=O)c2ccccc2)cc1` on SNB-19 CNS?
20.1 µM

Hi! What's the reported TGI for `C=CC(C)(C)n1cc(C2=C(O)C(=O)C(c3cn(C(C)(C)C=C)c4ccccc34)=C(O)C2=O)c2ccccc21` on SNB-19 CNS?
7.38 µM

Hi! What's the reported TGI for `Cn1c(=Nc2ccc(Cl)cc2)sc2ccccc21` on SNB-19 CNS?
> 100 µM

Hi! What's the reported TGI for `CCCc1nc(Cl)nc(Cl)c1Cl` on SNB-19 CNS?
2.57 µM

Hi! What's the reported TGI for CC(=O)C(C)C(=O)N1C(=O)N(C)C2(C)N(C)C(=O)NC12C (stereo unspecified) on SNB-19 CNS?
> 100 µM

Hi! What's the reported TGI for `N#Cc1c(Cl)c2cccnc2n2c1nc1ccccc12` on SNB-19 CNS?
38.5 µM

Hi! What's the reported TGI for `Nc1c(C(=O)c2cccc(C#CCN3CCCCC3)c2)cnn1-c1ccc(F)cc1` on SNB-19 CNS?
> 25 µM

Hi! What's the reported TGI for CC(Oc1ccc(Oc2cnc3ccc(Cl)cc3n2)cc1)C(=O)O (stereo unspecified) on SNB-19 CNS?
> 100 µM

Hi! What's the reported TGI for CSc1ncnc2c1ncn2CC(=O)C1CCC2C3CCC4=CC(=O)CCC4(C)C3CCC12C (stereo unspecified) on SNB-19 CNS?
> 100 µM

Hi! What's the reported TGI for `FC(F)(F)c1ccc(-c2nn3ncccc3c2-c2ccnc(Nc3ccc4c(c3)OCCO4)n2)cc1` on SNB-19 CNS?
> 25 µM

Hi! What's the reported TGI for COC(=O)c1c(CC(Cc2ccc3c(c2)CCCC3)C(=O)O)ccc2c1CCCC2 (stereo unspecified) on SNB-19 CNS?
> 100 µM

Hi! What's the reported TGI for O=C(NN1C(=O)C(Cl)C1c1cccc([N+](=O)[O-])c1)c1ccccc1O (stereo unspecified) on SNB-19 CNS?
> 100 µM

Hi! What's the reported TGI for `COc1ccc(Nc2nc(Nc3cc(C)[nH]n3)c3cc(OC)c(OC)cc3n2)cc1` on SNB-19 CNS?
3.18 µM

Hi! What's the reported TGI for `COc1ccc(-c2c(-c3ccccc3)c(C)c3ccccn23)cc1` on SNB-19 CNS?
> 100 µM
